Just for reference, patent US20210353579A1 is where these values come from.

- Protocol Notes: Solubility in water / aqueous solubility of HPPs and parent drugs
- Cond: medium not given
Recorded measurements of Solubility of HPP, one per entry

{"Molecule": "CC(=O)O.CCN(CC)CCOC(=O)C(C)c1ccc2c(c1)[nH]c1ccc(Cl)cc12 (centres unmarked)", "Solubility of HPP": ">350 mg/mL"}
{"Molecule": "CC(=O)O.CCN(CC)CCOC(=O)Cc1c(C)n(C(=O)c2ccc(Cl)cc2)c2ccc(OC)cc12", "Solubility of HPP": ">250 mg/mL"}
{"Molecule": "CC(=O)O.CCN(CC)CCOC(=O)c1ccccc1Nc1cccc(C(F)(F)F)c1", "Solubility of HPP": ">400 mg/mL"}
{"Molecule": "CC(=O)O.CCN(CC)CCOC(=O)Cc1ccc(CC(C)C)cc1", "Solubility of HPP": ">250 mg/mL"}
{"Molecule": "CC(=O)O.CCN(CC)CCOC(=O)C(C)c1c(C)n(C(=O)c2ccc(Cl)cc2)c2ccc(OC)cc12 (centres unmarked)", "Solubility of HPP": ">450 mg/mL"}
